// data source = PubChem BioAssay (NCI)

Tested on: SF-539 CNS
Assay: NCI-60 one-dose screen, 48 h
Details: 10 µM unless noted
Experimental: Cells are grown in 96 well plates and exposed to the test compound for 48 hours. Compounds are tested at a single concentration, which is 10^-5 M for most compounds. The reported endpoint is percent growth (GI% or GIPRCNT), where numbers from 0 - 100% represent growth inhibition, and numbers from -100% - 0 represent cell death. For example, a value of 40 represents 60% growth inhibition. A value of 0 means no net growth occurred over the course of the experiment. […]
The panel holds about 83,000 compounds, 20% with a hit somewhere; the sample as a whole holds those more often. Active and inactive are the calls of the source. How the source made its calls: active means growth percent below 10; inactive means the rest.
The categories you may choose from are Y (active), N (inactive)

molecule | test system | class assignment
CC1OC(n2c3ccccc3c3c4c(c5c6ccccc6[nH]c5c32)C(=O)N(CCN2CCCC2)C4=O)CC(O)C1O (centres undefined) | SF-539 CNS | N
CCOC(=O)c1c(NC(=O)c2ccc(Cl)cc2)sc2c(CN(C)C)c(O)ccc12 | SF-539 CNS | N
COc1ccc(\C=N/N=C(N)/C(N)=N\N=C/c2ccc(OC)cc2)cc1 | SF-539 CNS | N
Cc1ccc(CNc2ccc3nc(CCC4CCCCC4)[nH]c3c2)cc1 | SF-539 CNS | N
CC/C=C\C[C@H](O)C/C=C1/C(=O)C=C[C@@H]1C/C=C\CCCC(=O)N(C)C | SF-539 CNS | N

Problem: Just curious, what result did O=C(CSc1nnc(-c2cnccn2)n1-c1ccccc1)c1ccc(Cl)cc1 get here?
Solution: N

Problem: Returns: the outcome recorded for C=CCN=c1sc2c(n1NC(=O)c1cc3ccc1CCc1ccc(cc1)CC3)C(=O)c1ccccc1C2=O in this assay.
Solution: Y

Problem: Status in this test for COc1ccc(C2=Nc3c(N)nc(N)nc3NC(c3cccc(Nc4ccnc5cc(C(F)(F)F)ccc45)c3)C2)cc1 (centres undefined) ?
Solution: N

Problem: Could you kindly confirm the outcome this assay logged for O=S(=O)(NCCNc1nccc(-c2c(-c3ccc(F)c(O)c3)nc3occn23)n1)c1ccc(Cl)cc1 ?
Solution: N

----------
tested on: HCC-2998 colon; assay: NCI-60 one-dose screen, 48 h (100 = growth as untreated, 0 = no growth, -100 = all killed); conditions: 10 µM unless noted
This is part of a sample that, as a whole, favours compounds with a hit. Of some 83,000 tested, about 20% had one in any assay.
Classify by measured growth: 1 if it is equal to or exceeds 60%, 0 if it is smaller.

smiles notation | class assignment
Cc1cccc(CNc2c3ccccc3nc3ccccc23)c1 | 0

Here's the next entry for you.
Problem: # bool: growth of O=C(/C=C(/C=C/c1ccc2[nH]ccc2c1)OB(F)F)/C=C/c1ccc2[nH]ccc2c1 >= 60%
Solution: 0

----------
test system: SNB-19 CNS; assay: NCI-60 one-dose screen, 48 h (100 = growth as untreated, 0 = no growth, -100 = all killed); conditions: 10 µM unless noted
About 83,000 compounds went through this panel and 20% of them were active in at least one assay; those are over-represented in the sample as a whole. Active and inactive are the calls of the source. Rule for the calls: active = growth percent below 10; inactive = the rest.
Some compounds, each annotated with its measured growth.

compound | growth
COc1c(C(=O)Nc2ccc(C)c(Br)c2)ccc2ccccc12 | 95.3% (inactive)
COc1ccc(/C=N/NC(=O)c2ccc(-n3cc(-c4ccccc4)nn3)cc2)cc1OC | 107% (inactive)
CC(C)C1=NOC(=O)C1=Cc1cn(-c2ccccc2)nc1-c1ccc(F)cc1 | 81.7% (inactive)

Tested on SNB-19 CNS: CCOC(=O)C1=C(c2ccccc2)N=C2SC=C(c3ccc(Cl)cc3)N2C1c1ccc(Br)cc1 (stereo not given) . Observed growth: 85.4% (inactive)

# lookup: O=CN1N=C(c2cccc(Nc3ccnc4cc(Cl)ccc34)c2)CC1c1ccccc1 (stereo not given) on SNB-19 CNS, growth = 40.3% (inactive)

Case N=C(N)c1ccc(-c2ccc(-c3ccc(Cl)cc3Cl)s2)cc1 , SNB-19 CNS, growth recorded as 10.9% (inactive)

Let me check: CN(C)CC1CCC(CN(C)C)C1=O (stereo not given) , system SNB-19 CNS, measured growth is 102% (inactive)

Item O=C(c1nn(-c2ccccc2)c2c1CC(NCc1ccc(F)cc1)CC2)N1CCCCC1 (stereo not given) ; assay system SNB-19 CNS; growth reported as 101% (inactive)

GET /values?item= Clc1cccc(Nc2ncnc3ccc(-c4cnc5[nH]ccc5c4)cc23)c1 &system= SNB-19 CNS returns growth: 82.3% (inactive)

Observed growth on SNB-19 CNS, entry O=C(/C=C(/C=C/c1ccc2[nH]ccc2c1)OB(F)F)/C=C/c1ccc2[nH]ccc2c1 , equals 12.9% (inactive)

Fill in: SNB-19 CNS growth for COC(=O)[C@]1(C)CCC[C@]2(C)[C@H]3C[C@H]4C(C(C)C)=C[C@]3(CC[C@H]21)[C@@H]1C(=O)CC[C@H](OCCC#N)[C@@H]14 = 89.6% (inactive)

Field growth (SNB-19 CNS), entry CN(c1cc2ncc(=O)[nH]c2cc1NC(N)=NCc1ccc(Cl)cc1)C1CCCCC1 : 63.5% (inactive)

Item CCCCCC(/C=N\NC(=S)N/N=C/C(=C/c1ccccc1)CCCCC)=C\c1ccccc1 was tested on SNB-19 CNS; the reported growth is 56.8% (inactive)

Field growth (system: SNB-19 CNS) for entry O=C(Nc1cccc(Cl)c1)Nc1cccc(Cn2c(=O)[nH]c3ccc(Oc4ncccn4)cc3c2=O)c1 = 55.6% (inactive)
